biological target: UniProt Q6PHR2; test: biochemical; parameters: species or system HEK293/K-562/placenta mixed human extract; Kinobeads chemoproteomic competition binding, quantified by TMT LC-MS/MS, dose response up to 20 uM
Sequence (Q6PHR2 whole entry): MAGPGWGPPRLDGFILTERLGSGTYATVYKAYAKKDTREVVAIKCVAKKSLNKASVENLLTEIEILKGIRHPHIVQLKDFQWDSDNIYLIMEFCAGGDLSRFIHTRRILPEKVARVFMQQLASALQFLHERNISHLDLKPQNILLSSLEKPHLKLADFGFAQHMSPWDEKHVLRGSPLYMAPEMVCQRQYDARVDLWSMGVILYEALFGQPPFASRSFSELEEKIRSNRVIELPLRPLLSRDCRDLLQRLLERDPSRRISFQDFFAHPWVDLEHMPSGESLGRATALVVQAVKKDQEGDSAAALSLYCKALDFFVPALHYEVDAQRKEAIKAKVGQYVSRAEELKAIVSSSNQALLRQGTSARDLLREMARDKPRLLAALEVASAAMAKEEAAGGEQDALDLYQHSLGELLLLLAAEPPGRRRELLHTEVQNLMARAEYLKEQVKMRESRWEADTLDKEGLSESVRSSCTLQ
pIC50: −log10 of the molar value.
quantity: pIC50

Query string: Please supply the value of reported pIC50 for the item `COc1ccccc1-c1n[nH]c2nc(N[C@H]3CC[C@H](NS(=O)(=O)CCC(F)(F)F)CC3)nc(OC)c12`
Result string: ≤ 4.70

###

target: GAK (Homo sapiens); experiment: biochemical; set-up: species or system HEK293/K-562/placenta mixed human extract; Kinobeads chemoproteomic competition binding, quantified by TMT LC-MS/MS, dose response up to 20 uM
Sequence (O14976 whole entry): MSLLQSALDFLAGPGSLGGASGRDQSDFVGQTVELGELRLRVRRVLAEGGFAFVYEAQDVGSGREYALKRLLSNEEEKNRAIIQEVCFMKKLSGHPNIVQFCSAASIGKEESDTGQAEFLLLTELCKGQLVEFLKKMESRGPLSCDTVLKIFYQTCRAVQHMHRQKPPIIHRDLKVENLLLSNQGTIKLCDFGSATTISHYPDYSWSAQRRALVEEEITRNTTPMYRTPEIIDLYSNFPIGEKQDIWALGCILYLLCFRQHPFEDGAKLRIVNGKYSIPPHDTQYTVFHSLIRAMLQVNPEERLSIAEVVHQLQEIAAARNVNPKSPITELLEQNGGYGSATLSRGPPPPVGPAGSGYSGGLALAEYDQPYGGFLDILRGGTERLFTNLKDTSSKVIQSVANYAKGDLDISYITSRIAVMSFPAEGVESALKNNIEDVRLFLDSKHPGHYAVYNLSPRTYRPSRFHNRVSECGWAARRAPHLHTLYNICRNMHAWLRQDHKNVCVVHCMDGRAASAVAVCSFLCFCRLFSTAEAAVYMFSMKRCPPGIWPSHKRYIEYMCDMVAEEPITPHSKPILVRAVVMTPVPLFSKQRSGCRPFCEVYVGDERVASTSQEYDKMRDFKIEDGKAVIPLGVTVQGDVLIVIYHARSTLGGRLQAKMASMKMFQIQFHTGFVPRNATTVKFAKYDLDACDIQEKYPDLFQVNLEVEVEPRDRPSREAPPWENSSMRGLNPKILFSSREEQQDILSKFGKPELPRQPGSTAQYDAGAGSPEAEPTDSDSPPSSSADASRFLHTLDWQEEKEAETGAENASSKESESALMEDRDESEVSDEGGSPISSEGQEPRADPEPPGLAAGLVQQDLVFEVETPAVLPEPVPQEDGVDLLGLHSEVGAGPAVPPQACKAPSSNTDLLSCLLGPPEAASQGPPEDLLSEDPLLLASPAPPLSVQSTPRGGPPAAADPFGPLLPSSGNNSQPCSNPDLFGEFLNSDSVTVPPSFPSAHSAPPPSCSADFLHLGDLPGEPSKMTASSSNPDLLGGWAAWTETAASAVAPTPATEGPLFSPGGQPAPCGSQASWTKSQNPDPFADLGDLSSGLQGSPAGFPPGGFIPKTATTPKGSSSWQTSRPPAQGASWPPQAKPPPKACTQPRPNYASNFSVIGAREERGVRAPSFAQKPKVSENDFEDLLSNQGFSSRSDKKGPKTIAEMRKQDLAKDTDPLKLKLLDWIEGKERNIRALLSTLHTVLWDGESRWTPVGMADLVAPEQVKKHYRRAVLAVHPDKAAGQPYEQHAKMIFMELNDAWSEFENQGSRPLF
pIC50: −log10 of the molar value.
quantity: pIC50

Query string: Annotate the molecule `COc1nc(N[C@H]2CC[C@H](NS(=O)(=O)CC(C)C)CC2)nc2[nH]nc(N3CCOC[C@H]3C)c12` with its measured pIC50.
Result string: ≤ 4.70

###

target: WNK4 (Homo sapiens, UniProt Q96J92); assay: biochemical; set-up: species or system HEK293/K-562/placenta mixed human extract; Kinobeads chemoproteomic competition binding, quantified by TMT LC-MS/MS, dose response up to 20 uM
Sequence (Q96J92 whole entry): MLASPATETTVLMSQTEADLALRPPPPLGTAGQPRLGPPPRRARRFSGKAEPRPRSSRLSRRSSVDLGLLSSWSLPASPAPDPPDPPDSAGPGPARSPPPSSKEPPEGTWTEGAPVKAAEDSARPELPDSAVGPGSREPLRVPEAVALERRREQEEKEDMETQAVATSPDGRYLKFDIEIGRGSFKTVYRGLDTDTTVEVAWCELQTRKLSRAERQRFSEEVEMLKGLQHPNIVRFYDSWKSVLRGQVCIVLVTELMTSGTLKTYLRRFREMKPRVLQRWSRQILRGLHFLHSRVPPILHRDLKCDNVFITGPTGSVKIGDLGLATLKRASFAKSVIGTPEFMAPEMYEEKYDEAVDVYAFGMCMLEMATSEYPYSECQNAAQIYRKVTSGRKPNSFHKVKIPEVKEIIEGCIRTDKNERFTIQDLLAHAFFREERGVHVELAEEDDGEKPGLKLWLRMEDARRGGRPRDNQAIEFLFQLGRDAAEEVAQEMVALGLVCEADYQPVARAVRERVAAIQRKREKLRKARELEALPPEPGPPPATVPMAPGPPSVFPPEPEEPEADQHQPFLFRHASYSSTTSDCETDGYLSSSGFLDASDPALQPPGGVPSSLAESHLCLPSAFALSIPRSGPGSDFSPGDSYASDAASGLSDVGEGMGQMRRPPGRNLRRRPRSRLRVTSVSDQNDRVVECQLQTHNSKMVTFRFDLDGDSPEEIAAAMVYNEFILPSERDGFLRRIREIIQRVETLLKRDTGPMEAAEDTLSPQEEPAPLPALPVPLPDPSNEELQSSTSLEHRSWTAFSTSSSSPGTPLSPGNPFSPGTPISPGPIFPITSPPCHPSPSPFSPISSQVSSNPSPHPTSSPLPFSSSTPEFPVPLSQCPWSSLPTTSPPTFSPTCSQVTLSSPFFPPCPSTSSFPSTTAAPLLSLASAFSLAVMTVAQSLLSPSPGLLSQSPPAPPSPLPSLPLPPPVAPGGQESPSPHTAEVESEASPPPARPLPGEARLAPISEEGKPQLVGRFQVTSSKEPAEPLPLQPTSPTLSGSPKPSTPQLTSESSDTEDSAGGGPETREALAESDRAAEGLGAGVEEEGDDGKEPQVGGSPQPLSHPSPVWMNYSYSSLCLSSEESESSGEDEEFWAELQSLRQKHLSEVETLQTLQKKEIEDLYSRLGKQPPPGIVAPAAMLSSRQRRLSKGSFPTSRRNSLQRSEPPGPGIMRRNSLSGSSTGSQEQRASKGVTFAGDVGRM
quantity: IC50

Query string: Provide only the value of recorded IC50 for `COc1ccccc1-c1n[nH]c2nc(N[C@H]3CC[C@H](NS(=O)(=O)CCC(F)(F)F)CC3)nc(OC)c12`
Result string: ≥ 20 µM

###

target: JAK3 (Homo sapiens); assay: biochemical; design: species or system HEK293/K-562/placenta mixed human extract; Kinobeads chemoproteomic competition binding, quantified by TMT LC-MS/MS, dose response up to 20 uM
Sequence (P52333 whole entry): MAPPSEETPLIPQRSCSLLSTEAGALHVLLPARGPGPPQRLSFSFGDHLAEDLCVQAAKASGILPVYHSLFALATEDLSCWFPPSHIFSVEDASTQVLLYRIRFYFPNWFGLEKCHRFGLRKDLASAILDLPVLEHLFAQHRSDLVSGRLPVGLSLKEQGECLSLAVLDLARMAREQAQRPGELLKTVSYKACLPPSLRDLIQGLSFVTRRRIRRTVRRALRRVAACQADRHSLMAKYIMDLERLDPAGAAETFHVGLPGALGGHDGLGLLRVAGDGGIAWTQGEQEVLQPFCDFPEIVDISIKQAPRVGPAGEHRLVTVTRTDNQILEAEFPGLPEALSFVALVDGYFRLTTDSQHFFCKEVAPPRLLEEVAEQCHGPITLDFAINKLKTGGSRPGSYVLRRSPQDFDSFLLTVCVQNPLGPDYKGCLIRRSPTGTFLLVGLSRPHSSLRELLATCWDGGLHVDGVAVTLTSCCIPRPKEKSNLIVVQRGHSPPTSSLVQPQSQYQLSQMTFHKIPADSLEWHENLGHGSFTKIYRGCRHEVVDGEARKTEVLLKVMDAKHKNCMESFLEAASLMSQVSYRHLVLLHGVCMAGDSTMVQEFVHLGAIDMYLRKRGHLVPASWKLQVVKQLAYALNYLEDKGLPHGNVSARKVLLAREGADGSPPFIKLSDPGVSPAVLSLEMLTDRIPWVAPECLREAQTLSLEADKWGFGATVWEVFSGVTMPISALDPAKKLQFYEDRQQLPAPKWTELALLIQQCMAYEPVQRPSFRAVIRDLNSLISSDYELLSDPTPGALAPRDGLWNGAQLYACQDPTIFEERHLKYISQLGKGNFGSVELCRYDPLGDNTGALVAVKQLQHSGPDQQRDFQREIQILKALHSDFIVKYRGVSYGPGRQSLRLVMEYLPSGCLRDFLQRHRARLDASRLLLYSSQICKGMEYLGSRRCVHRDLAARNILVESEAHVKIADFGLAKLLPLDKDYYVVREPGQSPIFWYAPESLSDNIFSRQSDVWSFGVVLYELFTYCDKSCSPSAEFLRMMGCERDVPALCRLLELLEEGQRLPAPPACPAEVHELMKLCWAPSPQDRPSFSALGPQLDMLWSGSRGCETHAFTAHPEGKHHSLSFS
quantity: IC50

Query string: Tell us which IC50 value is on record for COc1nc(N[C@H]2CC[C@H](NS(=O)(=O)CC(C)C)CC2)nc2[nH]nc(N3CCOC[C@H]3C)c12 [compound 39]
Result string: ≥ 20 µM

###

Target: DDR2 (Homo sapiens, UniProt Q16832)
Sequence (Q16832 1-855): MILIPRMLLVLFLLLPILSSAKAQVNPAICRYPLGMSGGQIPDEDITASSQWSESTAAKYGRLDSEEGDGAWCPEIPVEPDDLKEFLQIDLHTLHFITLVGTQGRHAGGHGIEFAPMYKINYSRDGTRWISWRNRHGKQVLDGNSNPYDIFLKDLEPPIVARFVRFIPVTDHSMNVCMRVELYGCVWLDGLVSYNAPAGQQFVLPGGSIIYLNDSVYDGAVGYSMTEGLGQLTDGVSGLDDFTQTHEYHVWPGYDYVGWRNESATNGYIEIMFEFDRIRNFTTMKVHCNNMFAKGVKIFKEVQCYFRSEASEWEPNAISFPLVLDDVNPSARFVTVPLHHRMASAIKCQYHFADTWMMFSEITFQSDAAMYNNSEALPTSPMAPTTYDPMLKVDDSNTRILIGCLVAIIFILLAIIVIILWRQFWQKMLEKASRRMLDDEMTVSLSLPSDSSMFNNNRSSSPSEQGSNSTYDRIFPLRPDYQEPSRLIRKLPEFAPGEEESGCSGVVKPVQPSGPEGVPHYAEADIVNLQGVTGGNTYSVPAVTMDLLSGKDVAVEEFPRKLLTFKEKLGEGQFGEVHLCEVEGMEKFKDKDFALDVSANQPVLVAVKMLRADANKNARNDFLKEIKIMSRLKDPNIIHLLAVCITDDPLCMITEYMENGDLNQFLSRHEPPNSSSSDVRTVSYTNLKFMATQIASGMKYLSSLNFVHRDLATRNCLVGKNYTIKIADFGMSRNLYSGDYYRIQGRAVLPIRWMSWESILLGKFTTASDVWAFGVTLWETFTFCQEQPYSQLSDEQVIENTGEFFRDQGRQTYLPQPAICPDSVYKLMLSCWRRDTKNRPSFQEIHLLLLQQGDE
Assay: biochemical
Set-up: species or system HEK293/K-562/placenta mixed human extract; Kinobeads chemoproteomic competition binding, quantified by TMT LC-MS/MS, dose response up to 20 uM
quantity: IC50

Query string: Find the measured IC50 of COc1nc(N[C@H]2CC[C@H](NS(=O)(=O)CC(C)C)CC2)nc2[nH]nc(N3CCOC[C@H]3C)c12 [compound 39] with DDR2 (Homo sapiens, UniProt Q16832) as test system.
Result string: ≥ 20 µM
